assay: Cytotoxicity against African green monkey Vero cells; format: cell-based; conditions: chlorocebus sabaeus
MEASURED_ATTRIBUTE: CC50

Incoming: Recorded CC50 for Nc1nccc2c1ncn2[C@H]1C=C(CO)[C@H](O)[C@@H]1O , please?
Outgoing: 12 to 85 µg/mL

Let's switch to this compound now.
Incoming: Recorded CC50 for Nc1ncc(Br)c2c1ncn2[C@H]1C=C(CO)[C@H](O)[C@@H]1O , please?
Outgoing: 83 to 100 µg/mL

Reference source: ChEMBL document CHEMBL4396935
